Data origin, for the record: patent US9376421B2

- SUBJECT OF TEST: dCTG
- TEST DESCRIPTION: Binding to oligonucleotide 10-mer with single dCTG site
READOUT TYPE: pKd
Kindly note that pKd refers to -log10 of the concentration in mol/L and answer with the value alone.

The recorded pKd for COc1ccc2nc3cc(Cl)ccc3c(NCCCCNc3nc(N)nc(N)n3)c2c1 [Ligand 1] is 9.41

---

- SUBJECT OF TEST: rCUG
- TEST DESCRIPTION: Binding to oligonucleotide 10-mer with single rCUG site
READOUT TYPE: Kd (nM)
Respond with the bare value in nM.

The recorded Kd for COc1ccc2nc3cc(Cl)ccc3c(NCCCCNc3nc(N)nc(N)n3)c2c1 [Ligand 1] is 0.43
